Recorded protein stability index values for a group of variants are listed next.
B1: PLK2 (parent)
chain: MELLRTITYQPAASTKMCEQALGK

variants of: B1; assay: protein stability index of a GFP-peptide fusion (GPS, HEK-293T) (PSI 1-6); higher = more stable; conditions: c terminus: a fixed tail appended;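 note: lentivirally expressed fusions sorted by FACS into six bins by GFP to DsRed ratio, PSI derived from sequencing read proportions per bin multiplied by bin number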
Note: the reply should be a number with no unit written.

• Q20K = 2.22

[ask] Return reported protein stability index. Input variant: E2G
[reply] 2.69

[ask] Consider the variant K16Q and give its recorded protein stability index.
[reply] 2.22

[ask] Please report the measured protein stability index for A13R
[reply] 2.39
